# Test system: PIK3CA (human), P42336 [Q546K]
# Sequence (P42336 whole entry Q546K, looked up): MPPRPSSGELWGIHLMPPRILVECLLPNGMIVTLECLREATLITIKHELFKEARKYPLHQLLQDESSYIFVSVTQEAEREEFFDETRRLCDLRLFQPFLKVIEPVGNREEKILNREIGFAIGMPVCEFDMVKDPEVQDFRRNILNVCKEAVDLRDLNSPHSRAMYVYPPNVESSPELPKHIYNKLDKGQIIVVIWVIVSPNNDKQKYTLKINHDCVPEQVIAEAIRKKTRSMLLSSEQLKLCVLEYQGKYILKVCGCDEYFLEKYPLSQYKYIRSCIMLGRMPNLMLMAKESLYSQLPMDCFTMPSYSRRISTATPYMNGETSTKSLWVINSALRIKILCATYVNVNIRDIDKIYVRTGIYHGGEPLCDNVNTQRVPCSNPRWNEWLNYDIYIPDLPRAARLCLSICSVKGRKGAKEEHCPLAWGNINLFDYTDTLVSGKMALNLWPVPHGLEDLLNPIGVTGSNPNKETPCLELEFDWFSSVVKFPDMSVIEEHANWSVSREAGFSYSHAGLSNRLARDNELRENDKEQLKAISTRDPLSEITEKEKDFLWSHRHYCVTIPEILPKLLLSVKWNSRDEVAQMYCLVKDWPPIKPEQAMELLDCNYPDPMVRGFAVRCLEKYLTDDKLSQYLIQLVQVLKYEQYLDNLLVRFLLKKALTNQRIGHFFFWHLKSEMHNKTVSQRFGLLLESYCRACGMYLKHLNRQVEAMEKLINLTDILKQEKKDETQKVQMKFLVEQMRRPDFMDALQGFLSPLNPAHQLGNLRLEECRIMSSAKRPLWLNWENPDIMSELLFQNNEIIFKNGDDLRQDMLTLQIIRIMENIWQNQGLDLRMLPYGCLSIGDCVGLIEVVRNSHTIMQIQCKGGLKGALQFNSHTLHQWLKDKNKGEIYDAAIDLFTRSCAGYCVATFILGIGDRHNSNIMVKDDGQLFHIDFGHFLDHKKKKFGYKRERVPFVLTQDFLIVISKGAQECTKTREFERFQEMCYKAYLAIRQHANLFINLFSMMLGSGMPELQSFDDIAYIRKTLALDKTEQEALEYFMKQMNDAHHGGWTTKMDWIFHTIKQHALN
# Test description: KINOMEscan competition binding
# Assay conditions: compound 10.0 µM
Observable: kinase still bound, per cent of control (%)
Dear colleague, please return just the value in %, with no unit written.

{"columns": ["Chem smiles", "Uom", "Numeric value"],
 "data": [
  ["C[C@@H](Oc1cc(-c2cnn(C3CCNCC3)c2)cnc1N)c1c(Cl)ccc(F)c1Cl", "%", 17]
]}

Param item = "CCN(CC)CCCCNc1ncc2c(n1)N(C)C(=O)N(c1c(Cl)c(OC)cc(OC)c1Cl)C2" ; retrieve measured kinase still bound, per cent of control.
100

Param item = "CCN(CCO)CCCOc1ccc2c(Nc3cc(CC(=O)Nc4cccc(F)c4)[nH]n3)ncnc2c1" ; retrieve measured kinase still bound, per cent of control.
15

Param item = "CN(C)C/C=C/C(=O)Nc1ccc(C(=O)Nc2cccc(Nc3nccc(-c4cccnc4)n3)c2)cc1" ; retrieve measured kinase still bound, per cent of control.
100

Param item = "O=C1Nc2ccc(I)cc2/C1=C/c1cc(Br)c(O)c(Br)c1" ; retrieve measured kinase still bound, per cent of control.
97

----------
# System tested: PRKCQ (human) (UniProt Q04759)
# Sequence (Q04759 whole entry, looked up): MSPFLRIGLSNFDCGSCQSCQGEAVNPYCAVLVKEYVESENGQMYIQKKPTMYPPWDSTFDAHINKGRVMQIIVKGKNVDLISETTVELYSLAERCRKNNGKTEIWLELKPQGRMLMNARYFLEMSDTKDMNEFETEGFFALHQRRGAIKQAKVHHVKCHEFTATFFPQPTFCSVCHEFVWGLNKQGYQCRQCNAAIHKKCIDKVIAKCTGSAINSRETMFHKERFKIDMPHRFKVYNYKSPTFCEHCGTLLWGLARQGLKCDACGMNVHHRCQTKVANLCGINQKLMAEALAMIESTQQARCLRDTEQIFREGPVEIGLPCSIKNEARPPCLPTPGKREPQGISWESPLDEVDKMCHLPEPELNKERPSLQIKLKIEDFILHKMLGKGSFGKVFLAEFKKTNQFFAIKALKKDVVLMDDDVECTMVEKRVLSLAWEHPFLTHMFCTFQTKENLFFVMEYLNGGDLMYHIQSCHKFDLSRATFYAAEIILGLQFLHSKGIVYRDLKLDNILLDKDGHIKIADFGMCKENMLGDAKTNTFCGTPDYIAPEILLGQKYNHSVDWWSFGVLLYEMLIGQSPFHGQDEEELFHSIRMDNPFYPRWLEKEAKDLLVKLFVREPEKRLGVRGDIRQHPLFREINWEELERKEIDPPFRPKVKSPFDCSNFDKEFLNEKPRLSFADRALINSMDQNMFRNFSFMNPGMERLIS
# Test description: KINOMEscan competition binding
# Assay conditions: compound 10.0 µM
Each record is given fulfilled if its reported kinase still bound, per cent of control is strictly below 90%. Records at or above 90% are given not fulfilled.

Worked set:
{"columns": ["Compound", "Class name"],
 "data": [
  ["N#Cc1c(NC(=O)c2cccc3ccccc23)sc2c1CCCC2", "fulfilled"],
  ["C[C@@H](Oc1cc(-n2cnc3ccc(CN4CCN(C)CC4)cc32)sc1C(N)=O)c1ccccc1C(F)(F)F", "fulfilled"],
  ["Cc1ccc2nc(NCCN)c3ncc(C)n3c2c1", "not fulfilled"]
]}

Lab note: kinase still bound, per cent of control threshold 90%. Does this compound come in strictly under it? "C=CC(=O)Nc1cccc(Nc2nc(N[C@H]3CC[C@H](N(C)C)CC3)nc3c2ncn3C(C)C)c1"
fulfilled

----------
Entries annotated with measured kinase still bound, per cent of control
# System tested: EPHA3 (human)
# Test description: KINOMEscan competition binding
# Assay conditions: compound 10.0 µM
Dear colleague, please return just the value in %, with no unit written.

{"columns": ["Molecule", "Observable", "Numeric value"],
 "data": [
  ["COc1cc(C(=O)NC2CCN(C)CC2)ccc1Nc1ncc2c(n1)N(C1CCCC1)CCC(=O)N2C(C)C", "kinase still bound, per cent of control", 100]
]}

Which measured kinase still bound, per cent of control belongs to "C=CC(=O)Nc1cccc(Nc2nc(N[C@H]3CC[C@H](N(C)C)CC3)nc3c2ncn3C(C)C)c1" , tested on EPHA3 (human)?
54

Which measured kinase still bound, per cent of control belongs to "Cc1ccc(C(=O)Nc2cccc(C(F)(F)F)c2)cc1Nc1cncc(C(N)=O)c1" , tested on EPHA3 (human)?
8.8

Which measured kinase still bound, per cent of control belongs to "C[C@@H](Oc1cc(-n2cnc3ccc(CN4CCN(C)CC4)cc32)sc1C(N)=O)c1ccccc1C(F)(F)F" , tested on EPHA3 (human)?
100

Which measured kinase still bound, per cent of control belongs to "COc1cc(N2CCN(C)CC2)ccc1Nc1nc(N)c(C(=O)c2c(Cl)cccc2Cl)s1" , tested on EPHA3 (human)?
82

Which measured kinase still bound, per cent of control belongs to "C=CC(=O)Nc1cc(NC(=O)c2ccc(C)c(NC(=O)c3ccno3)c2)cc(C(F)(F)F)c1" , tested on EPHA3 (human)?
9.8

Which measured kinase still bound, per cent of control belongs to COc1cc(C(=O)NC2CCN(C)CC2)ccc1Nc1ncc2c(n1)N(C1CCCC1)C(C)CC(=O)N2C (centres undefined) , tested on EPHA3 (human)?
100

Which measured kinase still bound, per cent of control belongs to "O=C(NC1CC1)c1cccc(-c2ccc3c(NC(=O)C4CC4)n[nH]c3c2)c1" , tested on EPHA3 (human)?
64
